Target: HLA-DRB1*1101 (human)
Assay: competition binding
Details: modification not given
measurement_label: IC50 (µM)
// units = µM; emit number, no label

Known IC50 results, listed for orientation:
# binder, unit_annotation, recorded_result
records = [
    ("RCWALSFYPAEITLT [p40]", "µM", 40.6),
    ("TSVSRPGRGEPRFIA [p3]", "µM", 1.02),
    ("AEITLTWQRDGEDQT [p42]", "µM", 6),
]

Reported IC50, binder EGLPKPLTLRWEPSS [p49] : ____
2.06
